binding signal values for the sequences below.
# systemName: GST-NTL8 NAC domain (Arabidopsis thaliana, UniProt Q9XIN7 14-156)
# Sequence: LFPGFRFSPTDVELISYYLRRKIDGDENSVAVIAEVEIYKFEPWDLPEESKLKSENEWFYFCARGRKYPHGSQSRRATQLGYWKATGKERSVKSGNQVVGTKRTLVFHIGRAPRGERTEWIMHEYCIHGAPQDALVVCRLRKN
# protocolText: universal protein binding microarray (PBM); high values mean tight binding
# particulars: protein: recombinant; tags: GST; chain copies: 2; dsDNA, one strand shown
Your answer should be a plain number; it is taken to be in E-score.

Take a look at these entries with their results.
1. CTAGGAAA | 0.425
2. ACGCAATA | 0.0551

Now for a further sequence.
State the recorded binding signal for this entry: AGGAAAGC
0.436

====

# systemName: GST-SND1(1-203) (Arabidopsis thaliana, UniProt Q9LPI7 1-203)
# Sequence: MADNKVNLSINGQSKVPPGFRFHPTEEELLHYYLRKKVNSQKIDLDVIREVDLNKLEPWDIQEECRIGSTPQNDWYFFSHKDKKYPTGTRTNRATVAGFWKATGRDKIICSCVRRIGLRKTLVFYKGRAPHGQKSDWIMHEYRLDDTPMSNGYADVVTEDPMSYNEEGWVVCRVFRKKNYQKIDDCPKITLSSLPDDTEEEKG
# protocolText: universal protein binding microarray (PBM); high values mean tight binding
# particulars: protein: recombinant; tags: GST; chain copies: 2; dsDNA, one strand shown
# binarize binding signal: threshold 0.4 E-score inclusive, high side T, low side F

Study these solved cases before continuing.
1) GTCAATTA | F
2) CACGCATC | F
3) AGATTGAC | F
4) TAACGTGA | F
5) CAGTCAAC | F

Tell me whether binding signal is at least 0.4 E-score here: ACGTATCT
F

Is binding signal for GTCAAAAC at or above 0.4 E-score?
F

Is reported binding signal greater than or equal to 0.4 E-score here: GGAGGGAA
F

====

# systemName: GST-ATAF1 NAC domain (Arabidopsis thaliana, UniProt Q39013 7-158)
# Sequence: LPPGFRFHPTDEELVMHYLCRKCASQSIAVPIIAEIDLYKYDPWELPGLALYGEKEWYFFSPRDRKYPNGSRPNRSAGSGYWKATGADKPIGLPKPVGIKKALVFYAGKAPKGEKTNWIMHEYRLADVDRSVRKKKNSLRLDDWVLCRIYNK
# protocolText: universal protein binding microarray (PBM); high values mean tight binding
# particulars: protein: recombinant; tags: GST; chain copies: 2; dsDNA, one strand shown
metric: binding signal (E-score)
Quick reminder: number only, in E-score, skip the unit.

1. GAACACGC | 0.19
2. TACACGTA | 0.322
3. CCCCGCCC | 0.262
4. GACGTAAA | 0.365
5. ATTACTTC | 0.176

Field request: binding signal | item: ACGTTTTC
0.336

Name the recorded binding signal for AACGTAAG .
0.255

Given the entry TGCGTAAA , report its measured binding signal.
0.216

Which binding signal value is on record for GATGCGTA ?
0.239

I would be grateful if you could share the reported binding signal for AAGCAACC .
0.0659

So what does the record say about binding signal for TATCGTAA ?
0.188

Which measured binding signal value corresponds to ATTGCGTA ?
0.32

Which binding signal value is on record for AAGGTCAA ?
0.146

What does the data say about its binding signal? Entry: AAGTAATC
0.22

What value of measured binding signal is listed for AAGGAAAG ?
0.0767

Return reported binding signal; argument: ATACGTTA
0.273

# input sequence: TATACGCA ; wanted: its binding signal
0.231

Please look up its binding signal: ATGGCGTA
0.185

// returns reported binding signal for input AGACGCAA
0.262

Entry GGTTTGAC : reported binding signal = ?
0.171

What value of binding signal has been recorded for this entry: ACACGCAT
0.292

Quick check: binding signal of AGATTGAC ?
0.0846

====

# systemName: GST-ATAF1 NAC domain (Arabidopsis thaliana, UniProt Q39013 7-158)
# Sequence: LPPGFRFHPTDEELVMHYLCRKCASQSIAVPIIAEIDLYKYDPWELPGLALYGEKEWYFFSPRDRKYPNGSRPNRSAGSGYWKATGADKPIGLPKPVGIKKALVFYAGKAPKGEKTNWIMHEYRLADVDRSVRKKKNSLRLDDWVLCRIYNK
# protocolText: universal protein binding microarray (PBM); high values mean tight binding
# particulars: protein: recombinant; tags: GST; chain copies: 2; dsDNA, one strand shown
metric: binding signal
Please report the result as a number followed by the unit.

Worked cases, answers included:
1. TGCCGTAA | 0.436 E-score
2. ACGCAATG | 0.162 E-score
3. GACTTGAC | 0.199 E-score

Please provide the recorded binding signal for ACGTAACG , tested on GST-ATAF1 NAC domain (Arabidopsis thaliana, UniProt Q39013 7-158).
0.348 E-score

====

// values below are reported binding signal
# systemName: GST-NAP(1-166) (Arabidopsis thaliana, UniProt O49255 1-166)
# Sequence: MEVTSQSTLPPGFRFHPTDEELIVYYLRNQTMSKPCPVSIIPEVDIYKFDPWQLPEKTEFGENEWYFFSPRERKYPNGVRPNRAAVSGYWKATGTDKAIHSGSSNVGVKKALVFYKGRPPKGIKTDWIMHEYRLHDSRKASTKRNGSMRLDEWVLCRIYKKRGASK
# protocolText: universal protein binding microarray (PBM); high values mean tight binding
# particulars: protein: recombinant; tags: GST; chain copies: 2; dsDNA, one strand shown
Provide only the numeric value, understood in E-score.

// worked examples, binding signal included
1. CTCTTGAC | 0.0978
2. GCACGGAA | 0.437
3. AAGCACGC | 0.0699

Need binding signal of AAGCGTAA , thanks.
0.119

# get_value(readout='binding signal', item= AGGGGAAA )
0.101

Entry AAACACGC has what binding signal?
0.225

# binding signal lookup, item CACGTCAC
0.344

Any idea what binding signal was measured for AGTCGTCG ?
0.119

Given GCGTACGC , state its recorded binding signal.
0.226

Name the reported binding signal value associated with the sequence GACACGGC
0.237

Can you look up the measured binding signal of ATTGCGTG for me?
0.458

# input sequence: TAAGGAAA ; wanted: its binding signal
0.0748

Which binding signal value belongs to CACGTTTC ?
0.332

Quick one: binding signal for ATACTTAA ?
0.0565

# lookup: binding signal of GTCAAAAC
0.111

Look up binding signal: ATACGTAA
0.461

Requested field: binding signal. Item: ATACGTAT
0.445

Given the entry CTTGCGTC , report its measured binding signal.
0.21

Data request, read-out binding signal, for CACGTTAG
0.0974

For the sequence CACGTAAG , what binding signal is on record?
0.419

State the recorded binding signal for this entry: GATGCGTA
0.182

GET /values?readout=binding signal&item= GTAACTTA
0.133

Entry ACACGATA has what binding signal?
0.183

====

# systemName: GST-VND3 NAC domain (Arabidopsis thaliana, UniProt Q9FH59 12-162)
# Sequence: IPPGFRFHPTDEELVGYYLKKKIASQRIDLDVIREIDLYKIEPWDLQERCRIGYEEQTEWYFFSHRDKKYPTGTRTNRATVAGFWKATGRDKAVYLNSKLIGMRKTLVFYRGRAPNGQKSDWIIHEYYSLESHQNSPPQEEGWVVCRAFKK
# protocolText: universal protein binding microarray (PBM); high values mean tight binding
# particulars: protein: recombinant; tags: GST; chain copies: 2; dsDNA, one strand shown
Entry flag: Fulfilled if binding signal reaches 0.2 E-score; Not fulfilled if it does not.

Check out these entries, answers already filled in.
1) ACGCAATC | Fulfilled
2) AGGGAAAT | Not fulfilled
3) CTACGCAA | Fulfilled

Would you say GTCGCGTA shows binding signal at minimum 0.2 E-score?
Not fulfilled

Check this sequence for binding signal at or above 0.2 E-score: ACACGTAA
Fulfilled

Is reported binding signal greater than or equal to 0.2 E-score here: ATTGACTA
Fulfilled

I'd appreciate it if you could say whether ACCTTAAC has binding signal at least equal to 0.2 E-score.
Not fulfilled

Check the entry TAAGTCAA : does binding signal equal or exceed 0.2 E-score?
Not fulfilled

====

# systemName: GST-NAP(1-166) (Arabidopsis thaliana, UniProt O49255 1-166)
# Sequence: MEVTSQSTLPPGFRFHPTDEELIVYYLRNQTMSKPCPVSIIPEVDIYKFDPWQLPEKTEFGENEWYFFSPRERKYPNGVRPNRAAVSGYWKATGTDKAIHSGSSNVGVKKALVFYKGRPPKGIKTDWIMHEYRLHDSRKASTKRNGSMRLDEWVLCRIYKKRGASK
# protocolText: universal protein binding microarray (PBM); transcription factors of Arabidopsis thaliana; high values mean tight binding
# particulars: protein: recombinant; tags: GST; chain copies: 2; dsDNA, one strand shown
metric: binding signal (E-score)
Field format: number, assumed E-score, no unit text.

Worked examples follow.
1. GTGGCGTA | 0.0567
2. ATTGCGTA | 0.423

# binding signal lookup, item ACGGCACG
0.324

Given the sequence AGACGTGA , what is its reported binding signal?
0.223

Fill in: binding signal of CAAGTAAC is ___
0.0502

I am curious: what binding signal value has been reported for CCGTTGAC ?
0.126

So what does the record say about binding signal for GAACACGC ?
0.248

Quick one: binding signal of ATGACGTG ?
0.36

Sample ATGTCGTG — what was its binding signal?
0.2

Can you share its binding signal? I mean this sequence: TACACGCA
0.375

Consider the sequence shown here: CCACGCCA What is its recorded binding signal?
0.0773

Fill blank: measured binding signal of the sequence CGTTTGAC is ____.
0.0589

# lookup: binding signal of GCACGTCA
0.341

Could you share which binding signal value was measured for ACGCGATC ?
0.116

Any idea what its binding signal is? The sequence is GGTCAATA
0.0842

Can you share its binding signal? I mean this sequence: GAAGGAAC
0.148

Sample ATGCGTGC — what was its binding signal?
0.273

binding signal lookup needed for TAAGCAAA , thanks.
0.103

# query: binding signal of entry ATGCGTAC
0.237

Which binding signal value belongs to CACGTCAA ?
0.299

State the recorded binding signal for this entry: CTTACGTA
0.363
